Source listed as the DeepSol protein solubility set.

measurement_description: soluble on expression in E. coli; label from the status in PepcDB or PDB records
reported_metric: soluble on expression in E. coli

{"residue_codes": "MNPILTAAKQLLHKEEKILSTLKCSLTGYMITHKVPYPGMLLATNQRLLFFSQYKNTFIAEFDYEKILSIETKRRIFDKKIIFYYEDEYITLGYITSSNVEAFIDLLQRNSKTSTGL", "reported": "not soluble"}
{"residue_codes": "GSHMTNWLRVYYYEDTISTIKDIAVEEDLSSTPLLKDLLELTRREFQREDIALNYRDAEGDLVRLLSDEDVALMVRQARGLPSQKRLFPWKLHITQKDNYRVYNTMP", "reported": "soluble"}
{"residue_codes": "MGSDKIHHHHHHMSSLGLIRNLPRSRFVPLVVLHDTDGPVADLFRREGIDFVAAPVLNRLARAAPRNGAAVVNVMRTLPALVRFLRASNASIVHTNDGRTHLIWGLAARVAGAKHLWHHRGDATSFGLRRVAPWLPNRLVAVSKFASPRPGIFSAASKCSVVHSPFDVTKMAGFEREEARNNVLAAIRCAPETKLLGYVGTLVDRKRPILFVEAVAALKRLSPETKVVGLFFGNALNGLDEAAKSRAEALGVADCIHFMGFRYPGEPWIAGLDALLVTAVNEPLGRTLVEAMLLGTPVVAADSGGNPEVVEDGRTGMLVRADDPDEFARACLKLFSDAALRDRIVETARNEVRARFSFERHVHAITSVYEELTGGMAAMQRSARAG", "reported": "not soluble"}
{"residue_codes": "CKLCLGEYPVEQMTTIAQCQCIFCTLCLKQYVELLIKEGLETAISCPDAACPKQGHLQENEIECMVAAEIMQRYKKLQFER", "reported": "soluble"}
{"residue_codes": "MGSDKIHHHHHHKLRDEGDAALKAKDYATVVTKYGEYLKQNNYQDTARIFNCGYAANQAKNYAEAAKYFDMAVKMNYNVDDSYVGEAMAYRNLNKTEEFLTTVKEGLKVIPDGNKNKTNLEKLLYGYCIKQGQAAQKKGDLAGAEKMYKEVLAVSNKDYQSNAYYSLGAMLYGNGAKILQAATPIATSEPDKYNAEKAKADKDFKQAKEYLTKAVELDPKDENSKKILASINDILK", "reported": "not soluble"}
{"residue_codes": "TVQVPVYSEQEYQLYLHDDAWTKAETDHLFDLSRRFDLRFVVIHDRYDHQQFKKRSVEDLKERYYHICAKLANVRAVPGTDLKIPVFDAGHERRRKEQLERLYNRTPEQVAEEEYLLQELRKIEARKKEREKRSQDLQKLITAADTTAEQRRTERKAPKKKLPQKKEAEKPAVPETAGIKFPDFKSAGVTLRSQRMKLPSSVGQKKIKALEQMLLELGVELSPTPTEELVHMFNELRSDLVLLYELKQACANCEYELQMLRHRHEALARAGVLGGPATPASGPGPASAEPAVTEPGLGPDPKDTIIDVVGAPLTPNSRKRRESASSSSSVKKAKKP", "reported": "soluble"}
{"residue_codes": "MAHHHHHHMALYIIGLGLGDERDVSVRGKELIEMSDVVYLESYTSVLFVSKNALEEFYKKNIKEVDRNFAEENCEEILEEAVNKKVSFLVVGDPLCATTHHDIILRAKKKNINVQVIHNASIMSAIGESGMQLYNFGQTVSIPYFEETYKPTSFYDKIKVNLDNNFHTLCLLDIKVKERTIENLMKNKNIYEPPRYMTINEAIEQLLYCEEVHKKNVITDNTRGIAIVRIGSNSQQIVSGNLLTLKTIKYNDPLHSLIICAPTLHDVEREYFDMYMHK", "reported": "not soluble"}
{"residue_codes": "MMQTSTSSRVRRYPYQITLSLVLKGFYSPSAPSYDFCLVLLPTLFLIDLMPIKFSLHVTIGIGEATPVPIFFFSAPWYFRSGNPLPHCVRAYRCKVNFPFFRLGWSTWLHY", "reported": "soluble"}
